This collection of values is drawn from patent US20120129811A1.

# Measured target: proMMP9(67-444;ΔFnII) (SEQ ID NO:5) (Homo sapiens, UniProt P14780, DEL216-390)
# Construct: start methionine (N); made in house; host or cells: E. coli BL21(DE3) RIL
# Sequence (P14780 with tags, fused parts or gaps DEL216-390): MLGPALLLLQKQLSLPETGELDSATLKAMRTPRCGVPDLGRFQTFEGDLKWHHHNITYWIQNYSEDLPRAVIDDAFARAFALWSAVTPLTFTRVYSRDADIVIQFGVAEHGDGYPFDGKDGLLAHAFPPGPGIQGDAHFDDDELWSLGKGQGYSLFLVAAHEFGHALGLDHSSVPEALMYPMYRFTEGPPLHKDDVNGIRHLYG
# Test summary: ThermoFluor binding assay with proMMP9(67-444;ΔFnII)
Readout type: Kd

1. Cc1nc2ccc3sc(Nc4cc(S(C)(=O)=O)ccc4OC(C)C)nc3c2n1CC(F)(F)F | 560 nM

The measured Kd that COc1ncccc1Nc1nc2c(ccc3c2ncn3C)s1 showed for proMMP9(67-444;ΔFnII) (SEQ ID NO:5) (Homo sapiens, UniProt P14780, DEL216-390) is 3700 nM

Form field Kd for item Cc1nc2c(ccc3sc(Nc4cc(C(N)=O)ccc4OC(C)C)nc32)[nH]1 on proMMP9(67-444;ΔFnII) (SEQ ID NO:5) (Homo sapiens, UniProt P14780, DEL216-390): 380 nM
